Target or system Epidermal growth factor receptor (Homo sapiens, UniProt P00533); recorded quantity IC50.
result-type: IC50 (nM)

INSERT INTO results (structure_as_smiles, result_type, inequality_operator, assay_result) VALUES
  ('COc1ccc(-c2c3c4cc(OC)c(OC)cc4oc(=O)c3n3ccc4cc(O)c(OC)cc4c23)cc1O', 'IC50', '>', 1000),
  ('COc1ccc(-c2c3c4cc(O)c(OCCCN(C)C)cc4oc(=O)c3n3ccc4cc(O)c(OC)cc4c23)cc1O', 'IC50', '=', 47.8),
  ('COc1ccc(-c2c3c4cc(OCCCN5CCOCC5)c(OCCCN5CCOCC5)cc4oc(=O)c3n3ccc4cc(O)c(OC)cc4c23)cc1O', 'IC50', '>', 1000),
  ('COc1ccc(-c2c3c4cc(OCCCN(C)C)c(OCCCN(C)C)cc4oc(=O)c3n3ccc4cc(O)c(OC)cc4c23)cc1O', 'IC50', '=', 31.8),
  ('COc1ccc(-c2c3c4cc(OC)c(OCCCN(C)C)cc4oc(=O)c3n3ccc4cc(O)c(OC)cc4c23)cc1O', 'IC50', '=', 215);
